All figures here come from paper PMC5318461.

System: L. amazonensis intracellular amastigotes
PROTOCOL_NOTES: Activity against L. amazonensis intracellular amastigotes in peritoneal macrophages (survival index; alone and checkerboard combination)
Type: cell-based, Leishmania amazonensis
EXPERIMENTAL_CONTEXT: Leishmania amazonensis, Peritoneal macrophage, isolated drug, 48 h, ± SD, read-out: IC50 Intracellular amastigote
MEASURED_PARAMETER: IC50 (nM)
API: value field is a number in nM; no unit string.

Notebook: CCCCCCCCCCCCCCCCOP(=O)([O-])OCC[N+](C)(C)C , IC50 read as 1820

----------
PROTOCOL_NOTES: Hemolysis assay (hemoglobin release; alone and checkerboard combination)
EXPERIMENTAL_CONTEXT: sheep, 6% erythrocyte suspension from defibrinated sheep blood
CC50 at 2 h values, listed per item
Write it as a number; the unit µM goes unstated.

CC50 at 2 h for CCCCCCCCCCCCCCCCOP(=O)([O-])OCC[N+](C)(C)C is 21.4

Others:
// CC50 at 2 h lookup, molecule = C[C@@H]1[C@H](O)[C@@H](C)/C=C/C=C/C=C/C=C/C=C/C=C/C=C/[C@H](O[C@@H]2O[C@H](C)[C@@H](O)[C@H](N)[C@@H]2O)C[C@@H]2O[C@](O)(C[C@@H](O)C[C@@H](O)[C@H](O)CC[C@@H](O)C[C@@H](O)CC(=O)O[C@H]1C)C[C@H](O)[C@H]2C(=O)O , result: 51.8
